# assayed_target: T1, FLAG–AjKissR2 (Apostichopus japonicus)
# T1 chain: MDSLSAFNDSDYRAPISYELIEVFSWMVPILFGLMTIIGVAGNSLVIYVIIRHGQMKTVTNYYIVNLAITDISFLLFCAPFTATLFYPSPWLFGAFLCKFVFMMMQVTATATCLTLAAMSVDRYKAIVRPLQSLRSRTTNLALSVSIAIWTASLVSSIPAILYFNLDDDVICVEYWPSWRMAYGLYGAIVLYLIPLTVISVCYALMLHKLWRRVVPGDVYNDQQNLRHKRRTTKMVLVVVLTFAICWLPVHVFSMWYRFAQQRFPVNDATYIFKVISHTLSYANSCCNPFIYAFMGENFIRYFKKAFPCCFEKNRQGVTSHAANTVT
# assay_info: competition with 1.0 uM FITC-AjKiss1a
Where no end group is shown, it is not given here.
assay_readout: pIC50
Interpret pIC50 as the negative base-10 log of the concentration measured in mol/L.

**Query** Entry under review: SAVKNKNKSRARPPLLPF-NH2 [AjKiss1b (C-terminal amidated)] . Reported pIC50?
**Result** 5.90

// provenance: paper PMC7282810
